ASSAY NOTES: yeast display, Sf9 membrane polyspecificity reagent, FACS + sequencing; frameworks hold sequencing errors
QUANTITY NAME: polyreactivity (PSR sort gate)

Example entries begin here.
[
  {
    "PRIMARY SEQUENCE": "QVQLVESGGGLVQAGGSLRLSCAASGFTFRWYAMGWYRQAPGKERELVAAISTSGGSTYYADSVKGRFTITRDNAKNTVYLQMNSLKPEDTSVYYCNRVNNYPTRKYDYWGQGSQVTVSS",
    "MEASURED": "high polyreactivity"
  },
  {
    "PRIMARY SEQUENCE": "QVQLVESGGGLVQAGGSLRLSCAASGSTLVWNAMGWYRQAPGKERELVAGITTSGGSTSYADSVKGRFTISRDNAKNTVYLQMNSLKQEDTAVYYCAVDAAIYTNKLDYWGQGTQVTVSS",
    "MEASURED": "low polyreactivity"
  },
  {
    "PRIMARY SEQUENCE": "QVQLEESGGGLVQAGGSLRLSCAASGIISTYYVMGWYRQAPGKERELVAAITGGDSSTYYADSVKGRFTISRDTAKNTVYLQMNSLIPDDTAVYYCAKEYYYARGARYDYWGQGTQVTVSS",
    "MEASURED": "low polyreactivity"
  },
  {
    "PRIMARY SEQUENCE": "QVQLVESGGGLVQAGGSLRLSCAASGRIFGGNAMGWYRQAPGKERELVAAINSSGGRTYYADSVKGRFTISRDNAKNTVYLQMNSLKPEDTAVYYCAARVGGNWYDYWGQGTQVTVSS",
    "MEASURED": "high polyreactivity"
  },
  {
    "PRIMARY SEQUENCE": "QVQLVESGGGLVQAGGSLRLSCAASGINFYYNAMGWYRQAPGKERELVATISWSDTSTYYADSVKGRFTISRDNAKNTVFLQMNSLKPEDTAGYYCATDGRETWLPEYYWGQGTQVTVSS",
    "MEASURED": "low polyreactivity"
  },
  {
    "PRIMARY SEQUENCE": "QVQLVESGGGLVQAGGSLRLSCAASGSILPRYGMGWYRQAPGKEREFVAAISWRGGRTYYADSVKGRFTISRDNAKNTVYLQMNSLKPEDTAVYYCAARANIYTRLDYWGQGTQVTVSS",
    "MEASURED": "high polyreactivity"
  }
]

Would you mind giving polyreactivity (PSR sort gate) for every sequence in the list below?
1. QVQIVESGGGLVQAGVSLRLSCAASGRTSDGYAMGWYRQAPGKESELVAGITEGGGDTYYADSVKGRFTISRDNAKNTVYLQMNSLKPEDTAVYYCNAVEGSRLPYDYWGQGTQVTVSS
2. QVQLVESGGGLVQAGGSLRLSCAASGFIFDYNAMGWYRQAPGKERELVAAIDITGGSTYYADSVKGRFTISRDNAKNTVYLQMNSLKPEDTAVYYCNRPYYIWVYSGYSGYDYWGQGTQVTVSS
3. QVQLVESGGGLVQAGGSLRLSCDASGSIFSKYVMGCYRQAPGKERELVASITSGGSTNYADSVKGRFTISRDNAKNTVYLQMTSQKPEDTAVYFCAARAINTWYRSGVDDWCQGTQVTVSS

Response line:
1. low polyreactivity
2. low polyreactivity
3. low polyreactivity

Would you mind giving polyreactivity (PSR sort gate) for every sequence in the list below?
1. QVQLVESCGGLVQAGGSLRLSCAASGSTFVYYAMGWYRQAPGKERELVAAISSGGSTYYADSVKGRFTISRDNAKNTVFLQMNSLKPEDTAVYDCAAKFGWGYTTYYYCGQGTQVTVSS
2. QVQLVESGGGLVQAGGSLRLSCAASGFTFGYYAMGWYRQAPGKERELVASMTVRGGSTYYADSVKGRFTISRDNAKNTVYLQINSLKPEDTAVYYCAAKRYPTWYPSQRSRYDSWGQGTQVTVSS

Response line:
1: high polyreactivity; 2: high polyreactivity

src = the nanobody polyreactivity screen of Harvey et al. (2022)
